System: Aspergillus oryzae
Record form. Attribute: MIC. Fill in for each entry.

Before answering, review these 3 worked examples.
- COMPOUND: "CCOC(=O)NC(=O)C(Cl)C(C)=O (stereo not shown) [R1=H, R2=COOC2 H5, N-Carboethoxy-2-chloroacetoacetamide]"
  MIC: "76.8 to 384 µg/mL"
- COMPOUND: "CC(=O)NC(=O)C(Cl)C(C)=O (stereo not shown) [N-Acetyl-2-Chloro-3-oxobutyramide, N-Acetyl-2-chloro-3-oxobutyramide]"
  MIC: "76.8 to 384 µg/mL"
- COMPOUND: "CC(=O)C(Cl)C(N)=O (stereo not shown) [2-Chloro-3-oxobutyramide]"
  MIC: "15.3 to 76.8 µg/mL"

# MIC lookup, item CC(=O)C(Cl)C(=O)N(C)C (stereo not shown) [R1=CH3, R2=CH3, 2-chloro-N,N-dimethyl-3-oxobutyramide]
384 to 1920 µg/mL

This collection of values is drawn from patent US4247712A.
